Experimental Target: human NTCP (Homo sapiens, UniProt Q14973)
Sequence (Q14973 1-349): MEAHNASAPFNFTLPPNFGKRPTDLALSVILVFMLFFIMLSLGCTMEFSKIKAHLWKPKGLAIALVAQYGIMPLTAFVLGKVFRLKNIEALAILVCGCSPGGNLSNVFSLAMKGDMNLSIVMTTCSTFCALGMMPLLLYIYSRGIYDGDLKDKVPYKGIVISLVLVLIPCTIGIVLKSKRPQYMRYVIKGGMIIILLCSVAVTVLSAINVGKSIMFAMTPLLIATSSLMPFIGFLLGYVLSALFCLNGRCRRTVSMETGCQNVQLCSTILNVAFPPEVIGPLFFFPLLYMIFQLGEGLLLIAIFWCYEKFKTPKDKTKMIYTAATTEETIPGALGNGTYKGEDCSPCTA
Experiment Description: Screening taurocholate uptake assay (96-well, [14C]taurocholate, 10 µM drug)
Particulars: screening taurocholate uptake, 10 µM drug
Structures can show the parent of a compound that is named as a salt.
Classify on B-score functional assay using LOW: < -2; MID: ≥ -2 and < -0.3; HIGH: ≥ -0.3

Example entries begin here.
- Compound: "Oc1c(Cl)cc(Cl)c2cccnc12"
  Group: "MID"
- Compound: "CC(=O)[C@H]1CC[C@H]2[C@@H]3C=CC4=CC(=O)CC[C@@]4(C)[C@@H]3CC[C@]12C"
  Group: "MID"
- Compound: "C/C=C(\\C)C(=O)O[C@H]1[C@H](OC(C)=O)[C@@]2(CO)C(CC1(C)C)C1=CC[C@@H]3[C@@]4(C)CC[C@H](O[C@@H]5O[C@H](C(=O)O)[C@@H](O[C@@H]6O[C@H](CO)[C@@H](O)[C@H](O)[C@H]6O)[C@H](O)[C@H]5O[C@@H]5O[C@H](CO)[C@@H](O)[C@H](O)[C@H]5O)[C@H](CO)C4CC[C@@]3(C)[C@@]1(C)C[C@H]2O (some centres unmarked)"
  Group: "LOW"
- Compound: "Nc1nc2[nH]cc(CCc3ccc(C(=O)N[C@@H](CCC(=O)O)C(=O)O)cc3)c2c(=O)[nH]1 [Pemetrexed disodium]"
  Group: "MID"
- Compound: "Cl.O=C1OC(CN2CCOCC2)CN1/N=C/c1ccc([N+](=O)[O-])o1 (centres unmarked) [Furaltadone hydrochloride]"
  Group: "HIGH"

Lookup: Lab log: N#CC(c1ccc(Cl)cc1)c1c(Cl)cc(-n2ncc(=O)[nH]c2=O)cc1Cl (centres unmarked) — assign B-score functional assay category
Found: LOW

Lookup: For the record CC[C@H](c1ccc(O)cc1)[C@@H](CC)c1ccc(O)cc1 , report the class its B-score functional assay corresponds to.
Found: LOW

Lookup: Any idea which band CCc1cccc2c3c([nH]c12)C(CC)(CC(=O)O)OCC3 (centres unmarked) is in?
Found: HIGH

Lookup: Band for the recorded B-score functional assay of N=C(N)NC(=O)Cc1c(Cl)cccc1Cl [Guanfacine hydrochloride] ?
Found: HIGH

Lookup: Hey, which category is COc1ccc2c(c1)c(CC(=O)O)c(C)n2C(=O)c1ccc(Cl)cc1 in, do you know?
Found: MID

Lookup: # classify by B-score functional assay band: CC1(C)[C@@H](OC(=O)CCC(=O)O)CC[C@]2(C)[C@H]3C(=O)C=C4[C@@H]5C[C@@](C)(C(=O)O)CC[C@]5(C)CC[C@@]4(C)[C@]3(C)CC[C@@H]12 [Carbenoxolone disodium salt]
Found: LOW
